System: IGROV-1
experimental details: NCI tumour cell line growth inhibition, 48 h
Activity calls are given as the source filed them. Cut-off read from the data, not from the text of the source: active = GI50 up to about 1.1 µM and inactive = higher.
measured attribute: GI50

{"molecule": "Cn1nc(-c2ccccc2)c(C(=O)/C=C/c2ccccc2)c(N2CCCCC2)c1=O", "result": "> 100 µM (inactive)"}
{"molecule": "N#Cc1c2ccc([N+](=O)[O-])cc2c(=O)n2c1[nH]c1ccc(C(F)(F)F)cc12", "result": "34.2 µM (inactive)"}
{"molecule": "O=C1/C(=C/c2ccc(O)c(O)c2)CCC/C1=C\\c1ccc(O)c(O)c1", "result": "4.05 µM (inactive)"}
{"molecule": "O=C(c1ccco1)N(C(=S)OCc1ccccn1)c1ccccc1", "result": "50.1 µM (inactive)"}
{"molecule": "O=C1OC(c2cccc(C(F)(F)F)c2)c2ccc3ccccc3c21 (configuration not stated)", "result": "> 10 µM (inactive)"}
{"molecule": "C=C[C@@]1(C)CC(=O)[C@]2(O)[C@@]3(C)[C@@H](OC(C)=O)CCC(C)(C)[C@@H]3[C@H](OC(C)=O)[C@H](OC(C)=O)[C@@]2(C)O1", "result": "56.6 µM (inactive)"}

Q. Answer with the recorded GI50 of C[C@H]1CC[C@@H]2[C@@H](C)[C@H]3[C@H](C[C@H]4[C@@H]5CC=C6C[C@@H](O)CC[C@]6(C)[C@H]5C[C@H](O)[C@]34C)N2C1 only.
A. > 100 µM (inactive)

Q. For CC[C@H](C)C1=C(O)[N@+]2([O-])Oc3ccc(-c4c(O)c(O)c(-c5ccc(O)cc5)c(OC(C)=O)c4OC(C)=O)cc3O[C@]2([C@@H](C)CC)C(=O)N1O , write its GI50.
A. 6.4 µM (inactive)

Q. Supply measured GI50 of CSC(=N)NNC(=O)CCC(=O)Nc1ccccc1C(F)(F)F in your reply.
A. > 100 µM (inactive)

Q. Give recorded GI50. Cc1cc(NC2=CC(=O)C(=O)c3ccccc32)no1
A. 8.28 µM (inactive)

Q. Identify measured GI50 corresponding to CC1=C(C#N)C(=O)N(/N=C/c2ccc(Cl)cc2)C(=O)/C1=c1\o/c(=C2/C(=O)N(/N=C/c3ccc(Cl)cc3)C(=O)C(C#N)=C2C)c2nccnc12
A. > 100 µM (inactive)

---

Tested on: NCI-H522
experimental details: NCI tumour cell line growth inhibition, 48 h
The source made the active and inactive calls. Rule as the data show it: active = GI50 up to about 1.1 µM and inactive = higher.
API: response.call in yes (active), no (inactive)

Reference set (3 entries):
{"compound": "COc1ccccc1/N=N/C(C(=O)c1ccccc1)C(=O)c1ccccc1", "target of assay": "NCI-H522", "group label": "no"}
{"compound": "CC(C)[C@H](NC(=O)[C@@H](O)[C@H](N)Cc1ccccc1)C(=O)N[C@@H](Cc1ccccc1)C(=O)O", "target of assay": "NCI-H522", "group label": "no"}
{"compound": "CC(=O)NC(CC(C)C)C(=O)NC(Cc1ccccc1)C(=S)N1CCCC1 (stereo unspecified)", "target of assay": "NCI-H522", "group label": "no"}

Q. # outcome recorded in this test, key = Cc1cc(C)nc(NS(=O)(=O)c2ccc(NC(=O)c3c4ccccc4nc4ccccc34)cc2)n1
A. no

Q. Identify the outcome logged in this assay for the compound shown: CC(C)(C)c1ccc(OC2CCO2)cc1 (stereo unspecified)
A. no

Q. Please let me know the test result on file for COc1c2c(c(O)c3c4c(c(C)cc13)C1OC3(C(OC)OC5CC(C)(O)C(OC6CC(C)(O)C(O)C(C)O6)C(C)O5)OC1C(OC)(O4)C31CO1)C(=O)C(O)CC2OC1CC(C)(O)C(OC(C)=O)C(C)O1 (stereo unspecified) .
A. yes

Q. What outcome does the record of this test show for Cc1cccc(NC(=O)C(=O)C(C(=O)c2ccc3ccccc3c2)C2OC(=O)c3ccccc32)c1C (stereo unspecified) ?
A. no

Q. Fill in: this test's call for CCCCC1=C(Br)C(=C(Br)Br)OC1=O is ___
A. no

---

GI50 values, listed per item
System: K562
experimental details: NCI tumour cell line growth inhibition, 48 h
The source made the active and inactive calls. No stated cut-off is given here; in the data, active = GI50 up to about 1.1 µM and inactive = higher.

// solved cases for GI50 follow
{"molecule": "CC(C)(C)[Si](C)(C)OC1CCOC1(O)c1ccccn1 (stereo not drawn)", "GI50": "57.9 µM (inactive)"}
{"molecule": "CCN(CC)CC(=N)N(CC)c1ccccc1", "GI50": "> 100 µM (inactive)"}
{"molecule": "COC(=O)C(COC(=O)/C=C/c1ccc(OC(C)=O)c(OC(C)=O)c1)OC(=O)/C=C/c1ccc(OC(C)=O)c(OC(C)=O)c1 (stereo not drawn)", "GI50": "3.48 µM (inactive)"}
{"molecule": "Brc1ccc2[nH]cc([C@H]3CN[C@@H](c4c[nH]c5ccc(Br)cc45)CN3)c2c1", "GI50": "1.99 µM (inactive)"}
{"molecule": "COC1=CCC=C(C[C@@H]2NCCc3cc(OC)c(OC)cc32)C1", "GI50": "> 100 µM (inactive)"}

Q. // Input: CSc1ccc(NC(=O)CCl)cc1 . Output its GI50 only.
A. 3.13 µM (inactive)

Q. Provide GI50 value for the following molecule: C1CCCCC2(CCCCCCCCC3(CCC1)SCCS3)SCCS2
A. > 100 µM (inactive)

---

Reported GI50 by item:
Tested on: A498
experimental details: NCI tumour cell line growth inhibition, 48 h
Activity calls are given as the source filed them. Rule as the data show it: active = GI50 up to about 1.1 µM and inactive = higher.

Solved cases (4 shown):
{"compound": "COc1ccccc1Cn1c2c(c3c(C(=O)NCCN(C)C)c(O)ccc31)C(=O)c1ccccc1C2=O", "measured attribute": "GI50", "result": "5.26 µM (inactive)"}
{"compound": "COC(=O)C1C=CCC2CCCCC21N1CCCC1 (stereo not given)", "measured attribute": "GI50", "result": "> 100 µM (inactive)"}
{"compound": "CCOC(=O)C1(C)C2=CC=C(O2)C(C)(C)C2=CC=C(O2)C(C)(C)C2=CC=C(O2)C(C)(C)C2=CC=C1O2", "measured attribute": "GI50", "result": "> 100 µM (inactive)"}
{"compound": "CCC(=O)Nc1ccc(N2C(=O)/C(=C/c3ccc(O)c(OC)c3)N=C2c2ccccc2)cc1", "measured attribute": "GI50", "result": "15.8 µM (inactive)"}

Okay, next one:
Q. Look up and state reported GI50 for O=C(O)c1cc(Cl)cc2c1NC1(N2)C(=O)Nc2ccccc21 (stereo not given)
A. > 100 µM (inactive)

---

System: SF-295
experimental details: NCI tumour cell line growth inhibition, 48 h
Active and inactive are the calls of the source. No stated cut-off is given here; in the data, active = GI50 up to about 1.1 µM and inactive = higher.
Please answer using one outcome listed in true (active), false (inactive)

{"molecule": "c1ccc2c(c1)SC1Sc3ccccc3[S+]21 (stereo unspecified)", "target of assay": "SF-295", "group label": "false"}

Q. Which outcome did this test record for the molecule CO[C@H]1C[C@H](O[C@H]2CC[C@]3(C=O)[C@H]4CC[C@]5(C)[C@@H](C6=CC(=O)OC6)CC[C@]5(O)[C@@H]4CC[C@]3(O)C2)O[C@H](C)[C@H]1O[C@@H]1O[C@H](CO[C@@H]2O[C@H](CO)[C@@H](O)[C@H](O)[C@H]2O)[C@@H](O)[C@H](O)[C@H]1O ?
A. true

Q. Call for entry C[C@H]1CCC/C=C/[C@@H]2C[C@H](OC(=O)CN(C)C)C[C@H]2[C@H](O)/C=C/C(=O)O1 :
A. true

---

System: LXFL 529
experimental details: NCI tumour cell line growth inhibition, 48 h
The source made the active and inactive calls. No stated cut-off is given here; in the data, active = GI50 up to about 1.1 µM and inactive = higher.
Allowed answers: active, inactive

{"compound": "O=Cc1ccc(CCl)cc1", "group label": "inactive"}
{"compound": "CC(=O)NC(CC(C)C)C(=O)NC(Cc1ccccc1)C(=S)N1CCCC1 (configuration not stated)", "group label": "inactive"}
{"compound": "CCC(C)(O)c1cn(-c2cccc(S(=O)(=O)O)c2)nn1 (configuration not stated)", "group label": "inactive"}
{"compound": "COc1cccc2c1C(=O)c1c(O)c3c(c(O)c1C2=O)C[C@@](O)(C(C)=O)C[C@@H]3OC1CC(N(Cc2ccccc2)Cc2ccccc2)C(O)C(C)O1 (some centres not stated)", "group label": "active"}
{"compound": "Cc1cc(C)n(-c2ccnc3cc(Cl)ccc23)n1", "group label": "inactive"}

Q. Look up the recorded call for NC(=S)N/C=C1\C(=O)Oc2ccccc2C1=O in this test.
A. inactive

Q. Hi, do you know how Cn1ccc2c(C(=O)c3ccccc3)cccc2c1=O came out in this test?
A. inactive

Q. Per the assay record, what outcome was assigned to CCC12C=CCN3CCC4(C(=C(C(=O)OC)C1)Nc1ccccc14)[C@H]32 (some centres not stated) ?
A. inactive

Q. For O=c1cccccc1NCCNc1cccccc1=O , what call appears in the results of this test?
A. inactive

Q. Hi team, can someone confirm the assay call for Cn1cc(NC(=O)c2cc(NC(=O)CCCCCCCCC(=O)Nc3cc(C(=O)Nc4cc(C(=O)NCCC(N)N)n(C)c4)n(C)c3)cn2C)cc1C(=O)NCCC(=N)N ?
A. inactive

Q. Outcome? CCOC(=O)CC1(C(=O)OCC)c2[nH]c3ccccc3c2CCN1Cc1ccccc1 (configuration not stated)
A. inactive

Q. Please let me know the test result on file for CC(C)(C)c1ccc(OC2CCO2)cc1 (configuration not stated) .
A. inactive

Q. I'd appreciate the recorded outcome for COc1ccc(CC(=O)NCCc2ccc(OC)c(OC)c2OC)cc1 from this test.
A. inactive

Q. Please indicate how the test categorized Cc1ccc(NC(=S)SCCC(=O)O)cc1 .
A. inactive

Q. Name the outcome recorded for N#C/C(=C\c1ccc2[nH]ccc2c1)C(=O)c1ccc(O)c(O)c1 in the assay.
A. inactive
